binders and their reported kon
- tested.on: T1, hK1 (human tissue kallikrein 1), recombinant (human, UniProt P06870 25-262)
- T1 construct: Expressed in P. pastoris from KLK1 cDNA and purified; enzymatically active; also called KLK1; Recombinant (Pichia) Kallikrein
- run.description: SPR
Quick reminder: number only, in M⁻¹ s⁻¹, skip the unit.

binder | units.label | kon
M0115-G12 (Fab, V domains shown) VH: EVQLLESGGGLVQPGGSLRLSCAASGFTFSPYFMEWVRQAPGKGLEWVSGISSSGGNTLYADSVKGRFTISRDNSKNTLYLQMNSLRAEDTAVYYCARDRFGNYYGSGSKLQHDAFDIWGQGTMVTVSS VL: DIQMTQSPVTLSLSPGDRATLSCRASQSVSFNLAWYQHKPGQAPRLLMFDASNRATGIPDRFSGSGSGTDFTLTIKRLEPEDFAVYYCQQYGTSPFTFGPGTNVDVKR | M⁻¹ s⁻¹ | 151000

API: the following record is the query input.
The binder M0097-D04 (Fab, V domains shown) VH: EVQLLESGGGLVQPGGSLRLSCAASGFTFSHYFMHWVRQAPGKGLEWVSYISSSGGLTGYADSVKGRFTISRDNSKNTLYLQMNSLRAEDTAVYYCARRGPVYYYDSSGSHSAFDIWGQGTMVTVS VL: AQSELTQPPSASGTPGQRVTISCSGSSSNIGSNYVYWYQQLPGMAPKLLIYRNNQRPSGVPDRFSGSKSGTSASLAISGLRSEDEADYYCAAWDDSMSGVVFGGGTKLTVLS showed kon equal to 203000
